system: MCF-10A cells; assay: MTT cell viability assay; assay type: cell-based; details: Homo sapiens, 24 h, mean ± SD, read-out: IC50 cell viability inhibition
Below: a set of entries, each annotated with reported pIC50.
// scale note: pIC50 = -log10(conc_M); give the bare number

{"STRUCTURE SMILES": "C=C(C)[C@@H]1CC[C@]2(C(=O)O)CC[C@]3(C)[C@H](CC[C@@H]4[C@@]5(C)CC[C@H](O)C(C)(C)[C@@H]5CC[C@]43C)[C@@H]12", "pIC50": 4.65}

Proceed to the following item.
"C[C@H]1[C@H](C)CC[C@]2(C(=O)O)CC[C@]3(C)C(=CC[C@@H]4[C@@]5(C)CC[C@H](O)C(C)(C)[C@@H]5CC[C@]43C)[C@H]12" on MCF-10A cells gives pIC50 = 4.42

###

test system: MDA-MB-231 cells; assay: MTT cell viability assay; assay type: cell-based; conditions: Homo sapiens; MDA-MB-231, 72 h, mean ± SD; read-out: IC50 cell viability inhibition
PROPERTY NAME: IC50

{"STRUCTURE SMILES": "C=C(C)[C@@H]1CC[C@]2(C(=O)O)CC[C@]3(C)[C@H](CC[C@@H]4[C@@]5(C)CC[C@H](O)C(C)(C)[C@@H]5CC[C@]43C)[C@@H]12", "MEASURED RESULT": "8.39 µM"}

Proceed to the following item.
Quick note, IC50 for "C[C@H]1[C@H](C)CC[C@]2(C(=O)O)CC[C@]3(C)C(=CC[C@@H]4[C@@]5(C)CC[C@H](O)C(C)(C)[C@@H]5CC[C@]43C)[C@H]12" landed at 17.7 µM
